Tested on: 898857-211-R-J1-PDC complex spheroids, growth % test/control
Assay remarks: Anticancer human tumor 898857-211-R-J1-PDC patient-derived melanoma cell line growth inhibition [RAS]; active = viability on the fitted dose curve at most 10% of control; inactive = the rest
Condition details: second compound 0.1 µM; first compound 1 µM
The reply should name one outcome from label 1 (active), label 0 (inactive)

Prompt line: Outcome logged for CC1(O)CCCC1n1c(=O)c(C(F)F)cc2cnc(NC3CCN(S(C)(=O)=O)CC3)nc21 (centres undefined) + C#Cc1c(F)ccc2cc(O)cc(-c3ncc4c(N5CC6CCC(C5)N6)nc(OCC56CCCN5CC(F)C6)nc4c3F)c12 in this assay:
Response line: label 0

Prompt line: Continue with Nc1ccn(C2OC(CO)C(O)C2(F)F)c(=O)n1 (centres undefined) + C#Cc1c(F)ccc2cc(O)cc(-c3ncc4c(N5CC6CCC(C5)N6)nc(OCC56CCCN5CC(F)C6)nc4c3F)c12
Response line: label 1

Prompt line: Please give the result for Cc1nc(N2CCC3(CC2)COC(C)C3N)c(CO)nc1Sc1ccnc(N)c1Cl (centres undefined) + C#Cc1c(F)ccc2cc(O)cc(-c3ncc4c(N5CC6CCC(C5)N6)nc(OCC56CCCN5CC(F)C6)nc4c3F)c12 too.
Response line: label 0

Prompt line: Quick one: CCC(CC)c1cc(NC2CCC(N)C2)n2nccc2n1 (centres undefined) + C=CC(=O)N1CCN(c2nc(OCC3CCCN3C)nc3c(F)c(-c4nc(N)cc(C)c4C(F)(F)F)c(Cl)cc23)C(C)C1
Response line: label 0

Prompt line: For Cc1nc(N2CCC3(CC2)COC(C)C3N)c(CO)nc1Sc1ccnc(N)c1Cl (centres undefined) + C=CC(=O)N1CCN(c2nc(OCC3CCCN3C)nc3c(F)c(-c4nc(N)cc(C)c4C(F)(F)F)c(Cl)cc23)C(C)C1 then?
Response line: label 0

***
Prompt line: How was CC(Nc1ccc2c(c1)OCCn1cc(N3C(=O)OCC3C(F)F)nc1-2)C(N)=O (centres undefined) + C#Cc1c(F)ccc2cc(O)cc(-c3ncc4c(N5CC6CCC(C5)N6)nc(OCC56CCCN5CC(F)C6)nc4c3F)c12 classified in this test?
Response line: label 0

Prompt line: Could you do the same for O=C(c1ccc(F)c(F)c1Nc1ccc(I)cc1F)N1CC(O)([C@@H]2CCCCN2)C1 + C#Cc1c(F)ccc2cc(O)cc(-c3ncc4c(N5CC6CCC(C5)N6)nc(OCC56CCCN5CC(F)C6)nc4c3F)c12 , please?
Response line: label 0

Prompt line: Proceed to CC1(O)CCCC1n1c(=O)c(C(F)F)cc2cnc(NC3CCN(S(C)(=O)=O)CC3)nc21 (centres undefined) + C=CC(=O)N1CCN(c2nc(OCC3CCCN3C)nc3c(F)c(-c4nc(N)cc(C)c4C(F)(F)F)c(Cl)cc23)C(C)C1
Response line: label 0

Prompt line: And then C[C@@H](NC(=O)c1ncnc(N)c1Cl)c1ncc(C(=O)Nc2cc(C(F)(F)F)c(Cl)cn2)s1 + C#Cc1c(F)ccc2cc(O)cc(-c3ncc4c(N5CC6CCC(C5)N6)nc(OCC56CCCN5CC(F)C6)nc4c3F)c12 , what is it?
Response line: label 0

Prompt line: Would you kindly repeat that for CC(C)NCC(C(=O)N1CCN(c2ncnc3c2C(C)CC3O)CC1)c1ccc(Cl)cc1 (centres undefined) + C#Cc1c(F)ccc2cc(O)cc(-c3ncc4c(N5CC6CCC(C5)N6)nc(OCC56CCCN5CC(F)C6)nc4c3F)c12 ?
Response line: label 0

Prompt line: Then NC1c2ccccc2OC12CCN(c1cnc3c(N4CCCc5ncccc54)n[nH]c3n1)CC2 (centres undefined) + C=CC(=O)N1CCN(c2nc(OCC3CCCN3C)nc3c(F)c(-c4nc(N)cc(C)c4C(F)(F)F)c(Cl)cc23)C(C)C1 ?
Response line: label 0

Prompt line: Next record, please: C=CC(=O)N1CCN(c2nc(OCC3CCCN3C)nc3c(F)c(-c4nc(N)cc(C)c4C(F)(F)F)c(Cl)cc23)C(C)C1 (centres undefined) + C#Cc1c(F)ccc2cc(O)cc(-c3ncc4c(N5CC6CCC(C5)N6)nc(OCC56CCCN5CC(F)C6)nc4c3F)c12
Response line: label 0

Prompt line: Then this molecule: NC1c2ccccc2OC12CCN(c1cnc3c(N4CCCc5ncccc54)n[nH]c3n1)CC2 (centres undefined) + C#Cc1c(F)ccc2cc(O)cc(-c3ncc4c(N5CC6CCC(C5)N6)nc(OCC56CCCN5CC(F)C6)nc4c3F)c12
Response line: label 0

Prompt line: Same read-out for CCN1CCN(Cc2ccc(Nc3ncc(F)c(-c4cc(F)c5nc(C)n(C(C)C)c5c4)n3)nc2)CC1 + C=CC(=O)N1CCN(c2nc(OCC3CCCN3C)nc3c(F)c(-c4nc(N)cc(C)c4C(F)(F)F)c(Cl)cc23)C(C)C1 ?
Response line: label 0

Prompt line: O=C(c1ccc(F)c(F)c1Nc1ccc(I)cc1F)N1CC(O)([C@@H]2CCCCN2)C1 + C=CC(=O)N1CCN(c2nc(OCC3CCCN3C)nc3c(F)c(-c4nc(N)cc(C)c4C(F)(F)F)c(Cl)cc23)C(C)C1 ?
Response line: label 0

Prompt line: Next entry: CCN1CCN(Cc2ccc(Nc3ncc(F)c(-c4cc(F)c5nc(C)n(C(C)C)c5c4)n3)nc2)CC1 + C#Cc1c(F)ccc2cc(O)cc(-c3ncc4c(N5CC6CCC(C5)N6)nc(OCC56CCCN5CC(F)C6)nc4c3F)c12
Response line: label 0

Prompt line: Would you mind doing C=CC(=O)Nc1cc(Nc2nccc(-c3cn(C)c4ccccc34)n2)c(OC)cc1N(C)CCN(C)C + C=CC(=O)N1CCN(c2nc(OCC3CCCN3C)nc3c(F)c(-c4nc(N)cc(C)c4C(F)(F)F)c(Cl)cc23)C(C)C1 as well?
Response line: label 0

Prompt line: Another molecule to check: C[C@@H](NC(=O)c1ncnc(N)c1Cl)c1ncc(C(=O)Nc2cc(C(F)(F)F)c(Cl)cn2)s1 + C=CC(=O)N1CCN(c2nc(OCC3CCCN3C)nc3c(F)c(-c4nc(N)cc(C)c4C(F)(F)F)c(Cl)cc23)C(C)C1
Response line: label 0

Prompt line: Then CC(C)NCC(C(=O)N1CCN(c2ncnc3c2C(C)CC3O)CC1)c1ccc(Cl)cc1 (centres undefined) + C=CC(=O)N1CCN(c2nc(OCC3CCCN3C)nc3c(F)c(-c4nc(N)cc(C)c4C(F)(F)F)c(Cl)cc23)C(C)C1 ?
Response line: label 0

---

Test system: 898857-211-R-J1-PDC complex spheroids, growth % test/control
Assay remarks: Anticancer human tumor 898857-211-R-J1-PDC cell line growth inhibition [RAS];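 also: spheroids exposed to compound for seven days before readout; 100% = DMSO vehicle control wells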
Condition details: second compound 0.1 µM; first compound 0.0316 µM; active compounds read low
Known viability, T/C of a selection of molecules
Provide the reading as a plain figure in %.

Prompt line: Which viability, T/C reading was recorded for the molecule Cc1nc(N2CCC3(CC2)COC(C)C3N)c(CO)nc1Sc1ccnc(N)c1Cl (centres undefined) + C=CC(=O)N1CCN(c2nc(OCC3CCCN3C)nc3c(F)c(-c4nc(N)cc(C)c4C(F)(F)F)c(Cl)cc23)C(C)C1 ?
Response line: 96.4

---

System: 898857-211-R-J1-PDC complex spheroids, growth % test/control
Assay remarks: Anticancer human tumor 898857-211-R-J1-PDC cell line growth inhibition [RAS];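 also: spheroids exposed to compound for seven days before readout; 100% = DMSO vehicle control wells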
Condition details: second compound 0.0949 µM; first compound 0.1 µM; active compounds read low
Test readout: viability, T/C (%)
The reply should contain only the number, in %.

Past entries and their recorded results:
Prompt line: I am curious: what viability, T/C value has been reported for Cc1nc(N2CCC3(CC2)COC(C)C3N)c(CO)nc1Sc1ccnc(N)c1Cl (stereo not given) + CCn1c(-c2cc(N3CCN(C)CC3)cnc2C(C)OC)c2c3cc(ccc31)-c1csc(n1)CC(NC(=O)C1CC1C)C(=O)N1CCCC(N1)C(=O)OCC(C)(C)C2 ?
Response line: 116

Prompt line: Can you handle CC(Nc1ccc2c(c1)OCCn1cc(N3C(=O)OCC3C(F)F)nc1-2)C(N)=O (stereo not given) + CCn1c(-c2cccnc2C(C)OC)c2c3cc(ccc31)N1CCOC(CC(NC(=O)C(C(C)C)N(C)C(=O)C3(F)CCN(C(=O)C#CC(C)(C)N(C)C)CC3)C(=O)N3CCCC(N3)C(=O)OCC(C)(C)C2)C1 next?
Response line: 98.7

Prompt line: Also need NC1c2ccccc2OC12CCN(c1cnc3c(N4CCCc5ncccc54)n[nH]c3n1)CC2 (stereo not given) + CCn1c(-c2cc(N3CCN(C)CC3)cnc2C(C)OC)c2c3cc(ccc31)-c1csc(n1)CC(NC(=O)C1CC1C)C(=O)N1CCCC(N1)C(=O)OCC(C)(C)C2 , thanks.
Response line: 99.8

Prompt line: How about NC1c2ccccc2OC12CCN(c1cnc3c(N4CCCc5ncccc54)n[nH]c3n1)CC2 (stereo not given) + CCn1c(-c2cccnc2C(C)OC)c2c3cc(ccc31)N1CCOC(CC(NC(=O)C(C(C)C)N(C)C(=O)C3(F)CCN(C(=O)C#CC(C)(C)N(C)C)CC3)C(=O)N3CCCC(N3)C(=O)OCC(C)(C)C2)C1 ?
Response line: 87.2

Prompt line: Repeat with CC(C)n1nc(-c2ccc3oc(N)nc3c2)c2c(N)ncnc21 + CCn1c(-c2cc(N3CCN(C)CC3)cnc2C(C)OC)c2c3cc(ccc31)-c1csc(n1)CC(NC(=O)C1CC1C)C(=O)N1CCCC(N1)C(=O)OCC(C)(C)C2
Response line: 15.1

Moving on to the next molecule.
Prompt line: I am curious: what viability, T/C value has been reported for C=CC(=O)Nc1cc(Nc2nccc(-c3cn(C)c4ccccc34)n2)c(OC)cc1N(C)CCN(C)C + CCn1c(-c2cc(N3CCN(C)CC3)cnc2C(C)OC)c2c3cc(ccc31)-c1csc(n1)CC(NC(=O)C1CC1C)C(=O)N1CCCC(N1)C(=O)OCC(C)(C)C2 ?
Response line: 96
